- study.target: HIS-TGFβR1 T204D (Homo sapiens (Human), UniProt P36897, T204D)
- Sequence (P36897 34-503 T204D): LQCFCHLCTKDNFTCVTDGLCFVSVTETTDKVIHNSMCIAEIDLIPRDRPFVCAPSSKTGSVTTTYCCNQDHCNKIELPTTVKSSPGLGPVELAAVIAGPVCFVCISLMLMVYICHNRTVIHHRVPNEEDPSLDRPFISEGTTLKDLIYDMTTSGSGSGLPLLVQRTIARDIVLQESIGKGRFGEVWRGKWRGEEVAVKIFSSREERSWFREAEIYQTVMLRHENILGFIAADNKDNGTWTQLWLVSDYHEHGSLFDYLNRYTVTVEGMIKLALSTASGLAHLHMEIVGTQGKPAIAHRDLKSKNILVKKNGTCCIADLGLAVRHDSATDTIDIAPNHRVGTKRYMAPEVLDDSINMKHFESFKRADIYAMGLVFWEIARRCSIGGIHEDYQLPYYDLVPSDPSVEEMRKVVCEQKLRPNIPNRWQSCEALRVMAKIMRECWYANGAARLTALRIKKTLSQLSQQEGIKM
- assay.procedure: HTRF probe-displacement assay, HIS-TGFβR1 T204D
- recorded.conditions: 1 hour at room temperature
Kindly apply the following: Met if IC50 is less than 1 nM, Not met in every other case.

COc1cccc(-c2nc(Nc3ccncc3F)c3cc(CNCC(C)(C)O)cn3n2)n1 [Example 207]	Not met
O=C(CN1CC[C@@H](O)C1)Nc1cc(Nc2nc(-c3cccc(C(F)(F)F)n3)nn3cccc23)ccn1 [Example 327]	Met

stdin: Lab note: IC50 threshold 1 nM. Does this compound come in strictly under it? CN1CCN(Cc2ccn3nc(-c4ccc(F)cn4)nc(Nc4ccncc4F)c23)CC1 [Example 234]
stdout: Not met

stdin: Strictly below 1 nM: is that where IC50 of Fc1cccc(-c2nc(Nc3ccncc3F)c3cccn3n2)n1 [Example 14] sits?
stdout: Met

stdin: Below 1 nM on IC50? Entry O=C(c1cnccc1Nc1nc(-c2cccc(C(F)F)n2)nn2cccc12)N1CCC(O)(c2ccccc2)CC1 [Example 185]
stdout: Not met

stdin: A record lists Fc1cnccc1Nc1nc(-c2ccccn2)nn2ccc(CN3CCOCC3)c12 [Example 290] . Is its IC50 below 1 nM?
stdout: Not met

stdin: Dear colleague, could you confirm whether IC50 of C=CCOc1cnccc1Nc1nc(-c2ccccn2)nn2cccc12 [Example 79] falls below 1 nM? Thanks.
stdout: Not met

stdin: # check: IC50 < 1 nM for Cc1cccc(-c2nc(Nc3ccncc3F)c3c(CN4CCN(CCO)CC4)ccn3n2)n1 [Example 259]
stdout: Met

###

- study.target: HIS-TGFβR1 T204D (Homo sapiens (Human), UniProt P36897, T204D)
- assay.procedure: HTRF probe-displacement assay, HIS-TGFβR1 T204D
- recorded.conditions: 1 hour at room temperature
quantity.measured: IC50 (nM)
Write it as a number; the unit nM goes unstated.

COc1cccc(-c2nc(Nc3ccncc3)c3c(Cl)ccn3n2)n1	49
COc1cccc(-c2nc(Nc3ccncn3)c3cccn3n2)n1	55
COc1cccc(-c2nc(Nc3ccnc(NCC(C)(C)O)c3)c3c(C)ccn3n2)n1	6600
O=C(CN1CCCCC1)Nc1cc(Nc2nc(-c3cccc(C(F)(F)F)n3)nn3cccc23)ccn1	1.7

We now examine a further compound.
Entry `CS(=O)(=O)Nc1cccc(-c2nc(Nc3ccncc3F)c3cccn3n2)n1` — recorded IC50 = 12

###

- study.target: HIS-TGFβR1 T204D (Homo sapiens (Human), UniProt P36897, T204D)
- assay.procedure: HTRF probe-displacement assay, HIS-TGFβR1 T204D
- Assay type: binding
- recorded.conditions: 1 hour at room temperature
quantity.measured: IC50 (nM)
Use nM as the unit, but write only the number.

# annotated cases, reported IC50 shown
COC(=O)Nc1cc2c(Nc3ccncc3F)nc(-c3cccc(OC)n3)nn2c1	74
COc1cccc(-c2nc(Nc3ccnc(NCCCN(C)C)c3)c3cccn3n2)n1	88
CC(=O)Nc1cc(Nc2nc(-c3ccc(F)c(C(F)F)n3)nn3cccc23)ccn1	6.1

Entry `CC(C)NC(=O)c1cnccc1Nc1nc(-c2cccc(C(F)F)n2)nn2cccc12` , HIS-TGFβR1 T204D (Homo sapiens (Human), UniProt P36897, T204D) data, IC50 value: 110
